# System: MAP4K5
# Assay Context: concentration: 1 μM, replicates: in singlicate; n = 1;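 further: KINOMEscan kinase panel screen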
%Inh reference
Dear colleague, please send the value followed by its unit.

For orientation, consider the following solved cases.
| Molecule | %Inh |
| --- | --- |
| COc1cc2ncn(-c3cc(OCc4ccncc4)c(C(N)=O)s3)c2cc1OC [GSK336313] | 3% |
| Cl.c1ccc(Cn2cnc3cc(Nc4ncnc5ccccc45)ccc32)cc1 [GW272142] | 0% |
| Nc1n[nH]c2nnc(-c3ccccc3)c(-c3ccccc3)c12 [GW554060] | 0% |
| Fc1cccc(CSc2nnc(-c3ccc4c(c3)CCO4)o2)c1 | 0% |
| CCc1ccc(-c2ccc3c(c2)-c2nn(C)cc2S(=O)(=O)N3C)cc1 | 22% |

Specify measured %Inh for CCS(=O)(=O)c1ccc(OC)c(Nc2ncc(-c3ccc(F)cc3)o2)c1.Cl [GW591947] . 0%

Specify measured %Inh for CN(C)c1cc(-c2ccc3c(N)n[nH]c3c2)nc(N)n1 [GSK2219329] . 7%

Specify measured %Inh for O=C(Nc1n[nH]c2nc(-c3ccccc3)c(Cl)cc12)C1CC1 [SB-734909] . 9%

Specify measured %Inh for COc1ccc(Nc2nccc(N3CCC(NS(=O)(=O)c4ccc(NC(C)=O)cc4)C3)n2)cc1 (stereo not drawn) [GSK1379729] . 15%

----------
# Test system: RET
# Assay Context: concentration: 1 μM, replicates: in singlicate; n = 1
Classes based on %Inh: low-valued = under 5%, mid-valued = from 5% up to 20%, high-valued = 20% and over

Examples from the recorded data:
| Compound | Label |
| --- | --- |
| CC(C)(C)c1ccc(C(=O)Nc2cn3cc(-c4ccccc4)ccc3n2)cc1 | low-valued |
| COc1ccc(CNC(=O)NC2CCN(c3ccnc(Nc4ccc(F)cc4)n3)C2)cc1 (stereo not shown) | high-valued |
| COc1cc(OC)cc(-c2cc3cnc(N)nc3nc2NC(=O)NC(C)(C)C)c1 | high-valued |
| COC(=O)c1c(-c2ccccc2)c2cc(Br)ccc2c(=O)n1Cc1ccc(S(C)(=O)=O)cc1 | mid-valued |

Form field 'band' for `O=C(Nc1n[nH]c2nc(-c3ccccc3)c(Br)cc12)C1CC1` high-valued

Form field 'band' for `Cc1nn2c(=O)cc(N3CCOCC3)nc2n1Cc1cccc(Cl)c1Cl` high-valued

Form field 'band' for `COC(=O)c1c(-c2ccccc2)c2cc(C)ccc2c(=O)n1Cc1ccccc1` mid-valued

Form field 'band' for `Cc1ccccc1COc1cc(-n2cnc3cc(Cl)ccc32)sc1C(N)=O` mid-valued

Form field 'band' for `COc1cccc(-n2cnc3c(N)ncnc32)c1` low-valued

Form field 'band' for `O=C(NCCNc1ccnc(Nc2ccc(F)cc2)n1)Nc1ccc2c(c1)OCO2` low-valued

Form field 'band' for `CCCNC(=O)Nc1ccc(Oc2ncnc3ccn(C)c23)cc1` mid-valued

Form field 'band' for COc1cc(Nc2nccc(N3CCC(NC(=O)C(C)c4ccc(Cl)cc4)C3)n2)cc(OC)c1OC (stereo not shown) mid-valued

Form field 'band' for `COc1cc2ncn(-c3cc(OCc4ccncc4)c(C(N)=O)s3)c2cc1OC` low-valued

Form field 'band' for `Nc1nc(N)c2nc(-c3ccccc3)[nH]c2n1` high-valued

Form field 'band' for `CN(C)c1cc(-c2ccc3c(N)n[nH]c3c2)nc(N)n1` low-valued

Form field 'band' for `C[C@@H]1CC[C@H](C(=O)NC2CCCCC2)CN1c1cc(-c2ccc3c(N)n[nH]c3c2)nc(N)n1` high-valued

Form field 'band' for `CCc1ccc(-c2ccc3c(c2)-c2nn(C)cc2S(=O)(=O)N3C)cc1` mid-valued

Form field 'band' for `CCC(=O)c1c(-c2ccccc2)c2cc(Cl)ccc2c(=O)n1Cc1cc(S(C)(=O)=O)n(CC(N)=O)n1` low-valued

Form field 'band' for `Cc1ccc(-c2ccc3c(ccc4sc5c(c43)NC[C@@H](C)N=C5N(C)C)n2)cn1` low-valued

Form field 'band' for `Nc1nccc2scc(-c3ccc4c(c3)CCN4C(=O)Cc3ccccc3)c12` mid-valued

Form field 'band' for Cc1nnc(-c2ccc3ncn(-c4ccc(S(C)=O)cc4)c3c2)o1 (stereo not shown) mid-valued

----------
# Test system: PFTAIRE2
# Assay Context: concentration: 1 μM, replicates: in singlicate; n = 1
Label scheme for %Inh: lower than 10% is false, 10% and above is true.

Examples from the recorded data:
| Compound | Study Target | Label |
| --- | --- | --- |
| Cc1nnc(-c2ccc3ncn(-c4ccc(S(C)=O)cc4)c3c2)o1 (stereo not shown) | PFTAIRE2 | true |
| COc1cc(Nc2ccnc3ccc(C(F)(F)F)cc23)cc(OC)c1OC [GW577382] | PFTAIRE2 | false |
| FC(F)(F)c1ccc(-c2ncn(CCCN3CCOCC3)c2-c2ccncc2)cc1 [SB-217780] | PFTAIRE2 | true |
| CCC(=O)c1c(-c2ccccc2)c2cc(Cl)ccc2c(=O)n1Cc1cc(S(C)(=O)=O)n(CCC(C)(C)O)n1 | PFTAIRE2 | false |
| COc1ccc(CNC(=O)NC2CCN(c3ccnc(Nc4ccc(F)cc4)n3)C2)cc1 (stereo not shown) [GSK1379706] | PFTAIRE2 | false |

Determine whether measured %Inh meets or exceeds 10% for Nc1ncnc2c1ncn2-c1cccc2ccccc12 [SKF-97184] false

Determine whether measured %Inh meets or exceeds 10% for Nc1nc(-c2ccccc2F)c(-c2ccnc3ccccc23)s1 [GW560459] true

Determine whether measured %Inh meets or exceeds 10% for `COc1ccc(-c2coc3ccc(-c4nnc(SCc5cccc(C#N)c5)o4)cc23)cc1` false

Determine whether measured %Inh meets or exceeds 10% for CCS(=O)(=O)c1ccc(OC)c(Nc2ncc(-c3ccc(F)cc3)o2)c1.Cl [GW591947] false

----------
%Inh reference
# Tested on: RSK2(Kin.Dom.2-C-terminal)
# Construct: gene RPS6KA3
# Assay Context: concentration: 1 μM, replicates: in singlicate; n = 1
Response body: numeric value in %, unit text excluded.

For orientation, consider the following solved cases.
| Smiles String | Study Target | Readout Number |
| --- | --- | --- |
| O=C(Nc1n[nH]c2nc(-c3ccccc3)c(Cl)cc12)C1CC1 | RSK2(Kin.Dom.2-C-terminal) | 0 |
| Cc1ccc(Oc2ccc(Nc3ncnc4cc[nH]c34)cc2C)cn1 | RSK2(Kin.Dom.2-C-terminal) | 0 |
| Cc1nn2c(=O)cc(N3CCOCC3)nc2n1Cc1cccc(Cl)c1Cl | RSK2(Kin.Dom.2-C-terminal) | 3 |
| O=C(Nc1n[nH]c2cc(-c3ccccc3F)ccc12)C1CC1 | RSK2(Kin.Dom.2-C-terminal) | 0 |

Turning now to a further molecule:
Specify measured %Inh for `O=C(NCCNc1ccnc(Nc2ccc(F)cc2)n1)Nc1ccc2c(c1)OCO2` . 30

----------
# System: RSK1(Kin.Dom.2-C-terminal)
# Construct: gene RPS6KA1
# Assay Context: concentration: 1 μM, replicates: in singlicate; n = 1
Metric Name: %Inh (%)
Response body: numeric value in %, unit text excluded.

For orientation, consider the following solved cases.
| Compound | Result Units | %Inh |
| --- | --- | --- |
| CCCNC(=O)Nc1ccc(Oc2ncnc3ccn(C)c23)cc1 | % | 13 |
| C[C@@H]1CC[C@H](C(=O)NC2CCCCC2)CN1c1cc(-c2ccc3c(N)n[nH]c3c2)nc(N)n1 [GSK2291363] | % | 6 |
| COc1ccc(-n2cnc3c(N)ncnc32)cc1 [SKF-97236] | % | 0 |

Specify measured %Inh for `CC(C)(C)c1ccc(C(=O)Nc2cn3cc(-c4ccccc4)ccc3n2)cc1` . 0

Specify measured %Inh for COc1cc(Nc2nccc(N3CCC(NC(=O)C(C)c4ccc(Cl)cc4)C3)n2)cc(OC)c1OC (stereo not drawn) [GSK1379757] . 0

Specify measured %Inh for COc1ccc(CNC(=O)NC2CCN(c3ccnc(Nc4ccc(F)cc4)n3)C2)cc1 (stereo not drawn) [GSK1379706] . 28

----------
# Tested on: PLK3
# Assay Context: concentration: 1 μM, replicates: in singlicate; n = 1
%Inh reference
Response body: numeric value in %, unit text excluded.

| Compound | Study Target | Readout Number |
| --- | --- | --- |
| CC(C)(C)c1ccc(C(=O)Nc2cn3cc(-c4ccccc4)ccc3n2)cc1 | PLK3 | 13 |

Specify measured %Inh for `O=C(NCc1cccs1)c1cc(C(=O)c2c(Cl)cccc2Cl)c[nH]1` . 0

Specify measured %Inh for `COc1ccc(-n2cnc3c(N)ncnc32)cc1` . 2

Specify measured %Inh for `CCCNC(=O)Nc1ccc(Oc2ncnc3ccn(C)c23)cc1` . 15

----------
%Inh reference
# System: SgK110
# Assay Context: concentration: 1 μM, replicates: in singlicate; n = 1
Response body: numeric value in %, unit text excluded.

| Molecule | Study Target | Result Units | %Inh |
| --- | --- | --- | --- |
| COc1cc2nccc(Nc3ccc(OCc4ccc(NC(C)=O)cc4)cc3)c2cc1OC.Cl [GW440135] | SgK110 | % | 21 |

Tell me its %Inh on SgK110: FC(F)(F)c1ccc(-c2ncn(CCCN3CCOCC3)c2-c2ccncc2)cc1 [SB-217780] 0

Tell me its %Inh on SgK110: COc1ccc(CNC(=O)NC2CCN(c3ccnc(Nc4ccc(F)cc4)n3)C2)cc1 (centres unmarked) [GSK1379706] 0

Tell me its %Inh on SgK110: COc1cc2ncn(-c3cc(OCc4ccncc4Br)c(C(N)=O)s3)c2cc1OC [GW854278] 0

Tell me its %Inh on SgK110: O=C(Nc1n[nH]c2nc(-c3ccccc3)c(Cl)cc12)C1CC1 [SB-734909] 23

Tell me its %Inh on SgK110: OCCCNc1nccc(-c2c(-c3cccc(C(F)(F)F)c3)nn3cc(C(F)(F)F)ccc23)n1 [GW630813] 0

Tell me its %Inh on SgK110: COc1cc(Nc2nccc(N3CCC(NC(=O)C4COc5ccccc5O4)C3)n2)cc(OC)c1OC (centres unmarked) [GSK1379761] 0
